Experimental system: T1, ErbB3 extracellular domain (recombinant, soluble) (UniProt P21860 20-643, limits assumed)
T1 construct: extracellular domain; also called ectodomain of erbB3
T1 sequence (P21860 20-643 limits assumed): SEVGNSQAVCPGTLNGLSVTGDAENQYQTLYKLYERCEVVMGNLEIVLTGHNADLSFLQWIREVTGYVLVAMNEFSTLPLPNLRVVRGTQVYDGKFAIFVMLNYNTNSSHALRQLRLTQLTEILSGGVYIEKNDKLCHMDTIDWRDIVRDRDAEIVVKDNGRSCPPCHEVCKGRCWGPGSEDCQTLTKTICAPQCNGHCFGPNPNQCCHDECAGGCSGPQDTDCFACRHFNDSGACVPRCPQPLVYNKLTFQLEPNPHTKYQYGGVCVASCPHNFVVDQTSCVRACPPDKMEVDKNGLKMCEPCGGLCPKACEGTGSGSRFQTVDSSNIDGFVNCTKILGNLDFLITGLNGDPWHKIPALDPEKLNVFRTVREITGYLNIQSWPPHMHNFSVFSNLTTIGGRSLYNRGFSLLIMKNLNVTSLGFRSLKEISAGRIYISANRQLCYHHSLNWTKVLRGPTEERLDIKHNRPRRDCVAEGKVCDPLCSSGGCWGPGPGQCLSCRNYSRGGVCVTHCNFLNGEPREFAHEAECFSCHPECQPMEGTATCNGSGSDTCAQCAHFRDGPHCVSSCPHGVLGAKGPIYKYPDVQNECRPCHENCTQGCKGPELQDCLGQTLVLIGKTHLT
Run description: SPR; peptide 10 µM preinjected over immobilized ErbB3, then ErbB3 (300 nM) with HRGβ1 (5 µM); competitor: erbB3-HRGβ1
Bridge positions count the residues as written; N and C are the ends. Ends that are not written are not given here.
Metric name: Percent Inhibition (%)
Please state the figure in %; there is no need to write the unit.

Answered cases to consult:
INSERT INTO results (binder, metric_name, unit_descriptor, numeric_value) VALUES
  ('YCFIFKYADPDCY (disulfide 2-12 (inferred)) [B4-S22-AFD (derived from erbB4)]', 'Percent Inhibition', '%', 72.8),
  ('YCFPDEEGACY (disulfide 2-10 (inferred)) [B2-S22-AFA (derived from erbB2)]', 'Percent Inhibition', '%', 61.7),
  ('YCPIYKYPDVQCY (disulfide 2-12 (inferred)) [B3-S22-APQ (derived from erbB3)]', 'Percent Inhibition', '%', 32.4),
  ('YCLVWKYADAGCY (disulfide 2-12 (inferred)) [B1-S22-ALG (derived from erbB1)]', 'Percent Inhibition', '%', 75.1);

Then there is this binder:
INPUT: If you can, please state the reported Percent Inhibition value of YCPIWKFPDEECY (disulfide 2-12 (inferred)) [B2-S22-APE (derived from erbB2)] .
OUTPUT: 42.7
